Hey, just so you know, these numbers are from patent US20240391954A1.

Measured MC4R selectivity vs MC1R accompanies every entry in the list below.
Target under test: human MC4R receptor (human, UniProt P32245 1-332)
Sequence (P32245 whole entry): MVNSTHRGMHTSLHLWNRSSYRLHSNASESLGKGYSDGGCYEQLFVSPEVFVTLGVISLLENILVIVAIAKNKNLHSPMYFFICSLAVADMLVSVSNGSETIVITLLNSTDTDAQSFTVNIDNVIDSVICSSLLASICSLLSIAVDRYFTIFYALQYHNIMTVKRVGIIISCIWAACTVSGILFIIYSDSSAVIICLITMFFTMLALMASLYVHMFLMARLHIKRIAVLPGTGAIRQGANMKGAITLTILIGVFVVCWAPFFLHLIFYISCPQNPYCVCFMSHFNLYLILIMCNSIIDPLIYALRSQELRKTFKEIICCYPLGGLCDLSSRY
Experiment summary: cell-based or functional assay
Positions of bridges follow the written chain, without caps; N, C: chain ends. Non-standard residues stand in square brackets, D forms with d. NMeW = CN[C@@H](Cc1c[nH]c2ccccc12)C(=O)O; NMeH = CN[C@@H](Cc1c[nH]cn1)C(=O)O; Cit = NC(=O)NCCC[C@H](N)C(=O)O; Aib = CC(C)(N)C(=O)O
Assay endpoint: MC4R selectivity vs MC1R

Binder | Assay endpoint | Reported measurement
{CH2CO}-[dA][NMeH][dF]R[NMeW]C-NH2 (thioether N-6; SMILES C[C@H]1NC(=O)CSC[C@@H](C(N)=O)NC(=O)[C@H](Cc2c[nH]c3ccccc23)N(C)C(=O)[C@H](CCCNC(=N)N)NC(=O)[C@@H](Cc2ccccc2)NC(=O)[C@H](Cc2c[nH]cn2)N(C)C1=O) [CTX-1203] | MC4R selectivity vs MC1R | 2.32
Ac-C[dA][Cit][dF]RWC-NH2 (disulfide 1-7; SMILES CC(=O)N[C@H]1CSSC[C@@H](C(N)=O)NC(=O)[C@H](Cc2c[nH]c3ccccc23)NC(=O)[C@H](CCCNC(=N)N)NC(=O)[C@@H](Cc2ccccc2)NC(=O)[C@H](CCCNC(N)=O)NC(=O)[C@@H](C)NC1=O) [CTX-1628] | MC4R selectivity vs MC1R | 191
Ac-C[Aib][Cit][dF]RFC-NH2 (disulfide 1-7; SMILES CC(=O)N[C@H]1CSSC[C@@H](C(N)=O)NC(=O)[C@H](Cc2ccccc2)NC(=O)[C@H](CCCNC(=N)N)NC(=O)[C@@H](Cc2ccccc2)NC(=O)[C@H](CCCNC(N)=O)NC(=O)C(C)(C)NC1=O) [CTX-1636] | MC4R selectivity vs MC1R | > 12
